Kindly supply the reported Absolute mRNA transfection efficiency in HEK293 cells values for the records listed here.
# System: HEK293 cells
# assay-text: Preliminary screening as mRNA vectors, EGFP mRNA transfection of HEK293 cells
# Format: cell-based
# test-parameters: HEK293 cells, 96-well plates, EGFP mRNA 50 ng per well; percentage of GFP fluorescent cells relative to total number of cells (Hoechst)
# Description: Cell line: HEK293 cells (ATCC CRL-1573™) Medium: DMEM supplemented with 10% fetal bovine serum (Invitrogen) Screening: cell transfection on 96-well plates Detection (readout): percentage of the number of GFP fluorescent cells relative to the total number of cells (the total number of cells was determined using nucleus dye Hoechst). Lipofectamine2000 (Invitrogen) was used as the positive control. […]
Remember to follow the number with its unit.

>  <compound>
CCCCCCCCCCCCSc1nc(NCCCN2CCOCC2)nc(SCCCCCCCCCCCC)n1 [Compound S12S12D8]

>  <target-under-test>
HEK293 cells

>  <assay-value>
3.8%

$$$$
>  <compound>
CCCCCCCCCCCCCCCCCCNc1nc(NCCCCCCCCCCCCC)nc(NCCN2CCCC2)n1 [Compound N13N18D3]

>  <target-under-test>
HEK293 cells

>  <assay-value>
21.5%

$$$$
>  <compound>
CCCCCCCCCCCSc1nc(NCCN2CCCC2)nc(SCCCCCCCCC)n1 [Compound S9S11D3]

>  <target-under-test>
HEK293 cells

>  <assay-value>
1.9%

$$$$

State the recorded Absolute mRNA transfection efficiency in HEK293 cells for every item in the following list.
1. CCCCCCCCCCCCCCCCCCNc1nc(NCCCCCCCCCCC)nc(NCCCN2CCN(C)CC2)n1 [Compound N11N18D9]
2. CCCCCCCCCNc1nc(NCCCCCCC)nc(NCCCN(C)C)n1 [Compound N7N9D6]
3. CCCCCCCCCCCCCCCCSc1nc(NCCCN2CCN(C)CC2)nc(SCCCCCCCCCCCCCCC)n1 [Compound S15S16D9]
4. CCCCCCCCCNc1nc(NCCCCCC)nc(NCC2CCN(C)CC2)n1 [Compound N6N9D10]
5. CCCCCCCCCCCCCCCCNc1nc(NCCCCCCCC)nc(NCCN2CCN(C)CC2)n1 [Compound N8N16D5]

stdout:
["1.7%", "0.0%", "0.5%", "0.3%", "0.3%"]

----------
# Tested on: HEK293 cells
# assay-text: Preliminary screening as DNA vectors, GFP transfection of HEK293 cells
# Type: cell-based
# test-parameters: amino lipid/DOPE liposome with 75 ng plasmid DNA (psin-EGFP-IRES-Puro); number of GFP-expressing cells divided by total nuclei (Hoechst)
# Experimental: Cell line: HEK293 cells (ATCC CRL-1573™) Medium: DMEM supplemented with 10% fetal bovine serum (Invitrogen) Mode of screening: cell transfection on 96-well plates Detection (readout): percentage of the number of GFP fluorescent cells relative to the total number of cells (the total number of cells was measured using nucleus dye Hoechst—see FIG. 2). […] 4. […] The absolute transfection efficiency was calculated as follows: […]
Recorded Absolute DNA transfection efficiency in HEK293 cells split into classes zone 1: < 3%; zone 2: ≥ 3% and < 10%; zone 3: ≥ 10%

>  <compound>
CCCCCCCCCCCCCCCCSc1nc(NCCCCCCCCC)nc(NCCCN(C)C)n1

>  <label-class>
zone 3

$$$$

stdin: // bin(item) where item = "CCCCCCCCCCCCCCSc1nc(NCCCCCCCCC)nc(NCCCN2CCN(C)CC2)n1"
stdout: zone 3

stdin: Also need "CCCCCCCCCCCCCCCCSc1nc(NCC2CCN(C)CC2)nc(SCCCCCC)n1" , thanks.
stdout: zone 3

----------
# Tested on: HEK293 cells
# assay-text: Preliminary screening as mRNA vectors, EGFP mRNA transfection of HEK293 cells
# Format: cell-based
# test-parameters: EGFP mRNA 50 ng per well, 96-well plates; percentage of GFP fluorescent cells relative to total number of cells (Hoechst)
Would you mind telling me the reported Absolute mRNA transfection efficiency in HEK293 cells of each entry?
Give bare numbers, in %.

Answered examples (2):
>  <smiles-str>
CCCCCCCCCCCCCCCSc1nc(NCCN(C)C)nc(N(CCCCCCCCCCCC)CCCCCCCCCCCC)n1

>  <assay-value>
0.3

$$$$
>  <smiles-str>
CCCCCCCCCNc1nc(NCCN2CCN(C)CC2)nc(SCCCCCC)n1

>  <assay-value>
2.0

$$$$

For each of the items listed, what is its Absolute mRNA transfection efficiency in HEK293 cells?
1. CCCCCCCCCCCCCCCCNc1nc(NCCCN2CCOCC2)nc(SCCCCCC)n1
2. CCCCCCNc1nc(NCCN2CCCC2)nc(SCCCCCC)n1
3. CCCCCCCCCCCCCCCCNc1nc(NCCN2CCCC2)nc(SCCCCCCCCCCCC)n1

stdout:
1. 0.6
2. 0.1
3. 1.9

For every item below, please supply its Absolute mRNA transfection efficiency in HEK293 cells.
1. CCCCCCCCCSc1nc(NCCN2CCOCC2)nc(SCCCCCCC)n1
2. CCCCCCCCCCCCCCCCNc1nc(NCCN2CCCC2)nc(SCCCCCCCCC)n1
3. CCCCCCCCCCCCCNc1nc(NCCN(C)C)nc(SCCCCCCCCCCCC)n1

stdout:
1. 37.7
2. 50.3
3. 1.2

----------
# System: HEK293 cells
# assay-text: Preliminary screening as DNA vectors, GFP transfection of HEK293 cells
# Type: cell-based
# test-parameters: amino lipid/DOPE liposome with 75 ng plasmid DNA (psin-EGFP-IRES-Puro); number of GFP-expressing cells divided by total nuclei (Hoechst)
Can you tell me Absolute DNA transfection efficiency in HEK293 cells for the items I'm about to list?
One number for each entry, in %.

These solved cases illustrate the format of a correct answer.
>  <compound>
CCCCCCCCCCCSc1nc(NCCCCCCCC)nc(NCCN(C)C)n1 [S11N8 D1]

>  <scale-unit>
%

>  <assay-value>
19.8

$$$$
>  <compound>
CCCCCCCCCCCCCCCCCCSc1nc(NCCCCCCCC)nc(NCCCN(C)C)n1

>  <scale-unit>
%

>  <assay-value>
23.0

$$$$
>  <compound>
CCCCCCCCCCCCNc1nc(NCCCN2CCOCC2)nc(SCCCCCCC)n1

>  <scale-unit>
%

>  <assay-value>
17.7

$$$$
>  <compound>
CCCCCCCCCCCCSc1nc(NCCN(CC)CC)nc(SCCCCCC)n1

>  <scale-unit>
%

>  <assay-value>
6.6

$$$$

Next compound, please.
stdin: What value of measured Absolute DNA transfection efficiency in HEK293 cells is listed for "CCCCCCCCSc1nc(NCCCCCCC)nc(NCCCN2CCN(C)CC2)n1" ?
stdout: 3.6

----------
Could you please report measured Absolute DNA transfection efficiency in HEK293 cells for the items listed next?
# Tested on: HEK293 cells
# assay-text: Preliminary screening as DNA vectors, GFP transfection of HEK293 cells
# Assay type: cell-based
# test-parameters: HEK293 cells; lipid/DOPE liposome with 75 ng plasmid DNA (psin-EGFP-IRES-Puro); number of cells expressing GFP divided by total number of nuclei (Hoechst)
Answers are plain numbers, in %.

>  <compound>
CCCCCCCCCCCCCCCCCCNc1nc(NCCCCCC)nc(NCCN2CCN(C)CC2)n1 [Compound N6N18D5]

>  <scale-unit>
%

>  <assay-value>
0.6

$$$$
>  <compound>
CCCCCCCCNc1nc(NCCCCCC)nc(NCCN(C)C)n1 [Compound N6N8D1]

>  <scale-unit>
%

>  <assay-value>
0.0

$$$$
>  <compound>
CCCCCCCCCCCCCCCCCCSc1nc(NCCCN(C)C)nc(SCCCCCCCCCCCCCCCCCC)n1 [Compound S18S18D6]

>  <scale-unit>
%

>  <assay-value>
0.2

$$$$

// below: Absolute DNA transfection efficiency in HEK293 cells requested for another compound
stdin: Recorded Absolute DNA transfection efficiency in HEK293 cells for CCCCCCCCCCCCCCCCSc1nc(NCCCN2CCN(C)CC2)nc(SCCCCCCCCCCCCCC)n1 [Compound S14S16D9] , please?
stdout: 0.0

----------
# System: HEK293 cells
# assay-text: Preliminary screening as mRNA vectors, EGFP mRNA transfection of HEK293 cells
# Assay type: cell-based
# test-parameters: HEK293 cells, 96-well plates, EGFP mRNA 50 ng per well; percentage of GFP fluorescent cells relative to total number of cells (Hoechst)
value-type: Absolute mRNA transfection efficiency in HEK293 cells (%)
One number for each entry, in %.

>  <smiles-str>
CCCCCCCCCCCCCCCCCCNc1nc(NCCN2CCCCC2)nc(N(CCCCCCCCCCCC)CCCCCCCCCCCC)n1

>  <assay-value>
1.2

$$$$
>  <smiles-str>
CCCCCCCCCCCCCCCCCCNc1nc(NCCCCCCCCCCCCCCCCCC)nc(NCCN2CCOCC2)n1

>  <assay-value>
0.0

$$$$
>  <smiles-str>
CCCCCCCCCSc1nc(NCCN(C)C)nc(SCCCCCCCCC)n1

>  <assay-value>
0.8

$$$$

Respectfully, I request Absolute mRNA transfection efficiency in HEK293 cells for each entry included below.
1. CCCCCCCCCCCCN(CCCCCCCCCCCC)c1nc(NCCCCCCC)nc(NCCCN2CCOCC2)n1
2. CCCCCCCCCCCCCCCCNc1nc(NCCN2CCCC2)nc(N(CCCCCCCCCCCC)CCCCCCCCCCCC)n1
3. CCCCCCCCCCCCCCCCCCNc1nc(NCCCCCCCCCCCCCCCCCC)nc(NCCCN(C)C)n1
4. CCCCCCCCCCCCCCCCSc1nc(NCCCN2CCN(C)CC2)nc(SCCCCCCCCCCCC)n1
5. CCCCCCCCCCCCCNc1nc(NCCCCCCCCCCCC)nc(NCCN(C)C)n1
6. CCCCCCCCCCCCSc1nc(NCCCN(C)C)nc(SCCCCCCCCCCCC)n1

stdout:
[2.7, 4.0, 4.4, 0.0, 1.6, 2.6]

The values you see were collected from patent US20230123334A1.
